- System: A498
- assay: NCI tumour cell line growth inhibition, 48 h
Calls of active or inactive are those of the source. No stated cut-off is given here; in the data, active = GI50 up to about 1.1 µM and inactive = higher.
Exercise: state measured GI50 for each of the compounds provided.

Query string: Jot down GI50 (A498) of CC(=O)O[C@H]1CSC[C@@H](OC(C)=O)C1[N+](=O)[O-] (stereo partly specified) .
Result string: > 100 µM (inactive)

Query string: Jot down GI50 (A498) of O=[N+]([O-])/C(C(Cl)=C(Cl)Cl)=C(/Br)SCc1ccccc1 .
Result string: 7.01 µM (inactive)

Query string: Jot down GI50 (A498) of COC(=O)[C@]1(c2cc3ccccc3[nH]2)CC2CN(C(=O)OCc3ccccc3)C1CC2=O (stereo partly specified) .
Result string: 20 µM (inactive)

Query string: Jot down GI50 (A498) of CCc1ccc(CCC(=O)O)nc1 .
Result string: > 100 µM (inactive)

Query string: Jot down GI50 (A498) of C=C(C)C1=CCC[C@]2(C1)N=C(OC)[C@@H](C(C)C)N=C2OC .
Result string: > 100 µM (inactive)

Query string: Jot down GI50 (A498) of CC(=O)OCC1OC(OCc2ccccc2)C(Br)C(OC(C)=O)C1OC(C)=O (stereo unspecified) .
Result string: > 100 µM (inactive)

Query string: Jot down GI50 (A498) of O=C1/C(=C/c2cccc3ccccc23)CCc2ccc([N+](=O)[O-])cc21 .
Result string: 19.3 µM (inactive)

Query string: Jot down GI50 (A498) of CN(C)c1ccc(/C=C(\NC(=O)c2ccccc2)c2nn(C)c(=O)o2)cc1 .
Result string: > 100 µM (inactive)

Query string: Jot down GI50 (A498) of CCC/C=C\C=C\C1(NS(=O)(=O)c2ccc(C)cc2)CCC(C(C)(C)C)CC1 (stereo unspecified) .
Result string: 21.2 µM (inactive)

Query string: Jot down GI50 (A498) of CC(C)=CC1C(C(=O)OCc2cc3c(cc2Cl)OCO3)C1(C)C (stereo unspecified) .
Result string: 26.9 µM (inactive)

Query string: Jot down GI50 (A498) of Cn1c(=O)c2c(nc(NCCNc3nc4c(c(=O)n(C)c(=O)n4C)n3C)n2C)n(C)c1=O .
Result string: > 100 µM (inactive)

Query string: Jot down GI50 (A498) of CC(=O)O[C@H]1C#C/C=C\C#CC[C@@H]2C(=O)N[C@@H]12 .
Result string: 21.6 µM (inactive)

Query string: Jot down GI50 (A498) of O=C1C=C(NCC(c2ccccc2)c2ccccc2)C(=O)c2ncccc21 .
Result string: 2.24 µM (inactive)

Query string: Jot down GI50 (A498) of O=C1c2cccc3cc([N+](=O)[O-])cc(c23)C(=O)N1NC1=NCCN1 .
Result string: > 100 µM (inactive)

Query string: Jot down GI50 (A498) of COc1c(C)c(O)c2c(=O)cc(-c3ccccc3)oc2c1C .
Result string: > 100 µM (inactive)

Query string: Jot down GI50 (A498) of C/C(=C/CC[C@](C)(OC1OC(CO)C(O)C(O)C1O)[C@H]1CC[C@]2(C)[C@@H]1CC[C@@H]1[C@@]3(C)CC[C@H](O)C(C)(C)[C@@H]3C[C@H](O)[C@]12CO)CO (stereo partly specified) .
Result string: > 100 µM (inactive)

Query string: Jot down GI50 (A498) of O=C1NC(O)CCN1C1CC(O)C(CO)O1 (stereo unspecified) .
Result string: > 100 µM (inactive)

Query string: Jot down GI50 (A498) of O=C(/C=C/c1ccc(O)c(O)c1)c1ccc(O)cc1O .
Result string: 17.7 µM (inactive)

Query string: Jot down GI50 (A498) of CC1C(=O)C(C)C(c2ccco2)N(N=O)C1c1ccco1 (stereo unspecified) .
Result string: > 100 µM (inactive)

Query string: Jot down GI50 (A498) of COc1cc([C@@H]2OC(=O)C3C2C(=O)O[C@H]3c2cc(OC)c(OC)c(OC)c2)cc(OC)c1OC (stereo partly specified) .
Result string: > 100 µM (inactive)

Query string: Jot down GI50 (A498) of COc1cc2cccc(N)c2cc1OC .
Result string: > 100 µM (inactive)

====

- Tested on: SNB-19
- assay: NCI tumour cell line growth inhibition, 48 h
Active and inactive are the calls of the source. No stated cut-off is given here; in the data, active = GI50 up to about 1.1 µM and inactive = higher.
Exercise: state measured GI50 for each of the molecules provided.

Query string: Tell me GI50 reported for [N-]=[N+]=NC1OC(=O)C(Cl)=C1N=P(c1ccccc1)(c1ccccc1)c1ccccc1 (stereo unspecified)
Result string: > 10 µM (inactive)

Query string: Tell me GI50 reported for COC(=O)c1ccccc1C1CN=NC12Cc1ccccc1C2=O (stereo unspecified)
Result string: > 100 µM (inactive)

Query string: Tell me GI50 reported for C=C1CC2(C)CCC(OC(=O)C3(C)OC3C)C(C)(OC(C)=O)C2CC1=C(C)C (stereo unspecified)
Result string: > 100 µM (inactive)

Query string: Tell me GI50 reported for COc1ccccc1/C=C1\CCC(Cc2ccccc2)(CN(C)C)C1=O (stereo unspecified)
Result string: 1.57 µM (inactive)

Query string: Tell me GI50 reported for CN(C)CCCNC(=O)c1cc(NC(=O)c2cc(NC(=O)c3cc(NC(=O)CCCn4ccc(CO)c4CO)cn3C)cn2C)cn1C
Result string: 2.9 µM (inactive)

Query string: Tell me GI50 reported for CSC1NNC2(C(=O)N1)c1ccccc1-c1ccccc12 (stereo unspecified)
Result string: > 10 µM (inactive)

Query string: Tell me GI50 reported for COc1cc2cccc(N)c2cc1OC
Result string: > 100 µM (inactive)

Query string: Tell me GI50 reported for C=CCN1C(=O)/C(=C/c2ccc(C)cc2)N=C1SC1OC(COC(C)=O)C(OC(C)=O)C(OC(C)=O)C1OC(C)=O (stereo unspecified)
Result string: > 100 µM (inactive)

Query string: Tell me GI50 reported for COc1cc2c(cc1OC)C(C(=O)O)C(c1ccccc1)N(C)C2=O (stereo unspecified)
Result string: > 100 µM (inactive)

Query string: Tell me GI50 reported for CN(/N=C/C=N/N(C)C1=NCCCN1)C1=NCCCN1
Result string: > 100 µM (inactive)

Query string: Tell me GI50 reported for Cc1cc(Cl)ccc1NC(=O)CC1SC(N)=NC1=O (stereo unspecified)
Result string: > 100 µM (inactive)

====

- System: SK-OV-3
- assay: NCI tumour cell line growth inhibition, 48 h
Active and inactive are the calls of the source. Cut-off read from the data, not from the text of the source: active = GI50 up to about 1.1 µM and inactive = higher.
Exercise: state measured GI50 for each of the compounds provided.

Query string: Tell me GI50 reported for O=C(/C=C/c1ccc(O)c(O)c1)c1ccc(O)cc1O [BUTEIN]
Result string: 15.7 µM (inactive)

Query string: Tell me GI50 reported for CC1(C)O[C@H]2[C@H](O)C[C@](O)(CO)C[C@H]2O1
Result string: > 100 µM (inactive)

Query string: Tell me GI50 reported for COC(=O)[C@H]1CO[C@@H](C(C)(C)C)N1C(=O)N1C=CC(=O)C[C@@H]1C
Result string: > 100 µM (inactive)

Query string: Tell me GI50 reported for CCCCCCc1cc2cc(C(=O)Nc3cccc(F)c3)c(=N)oc2cc1O
Result string: 3.37 µM (inactive)

Query string: Tell me GI50 reported for c1ccc([P+](c2ccccc2)(c2ccccc2)c2ccc([P+](c3ccccc3)(c3ccccc3)c3ccccc3)c3ccccc23)cc1
Result string: > 100 µM (inactive)

====

Exercise: state measured GI50 for each of the molecules provided.
- Tested on: MDA-N
- assay: NCI tumour cell line growth inhibition, 48 h
Activity calls are given as the source filed them. Rule as the data show it: active = GI50 up to about 1.1 µM and inactive = higher. Peptide text beside a SMILES is read from it. * marks the point of attachment. OSu = O=C1CCC(=O)N1O*

Query string: Tell me GI50 reported for Cc1cc(C)c2c(=O)n(CN3CCC(O)(c4ccccc4)CC3)sc2n1
Result string: 19.6 µM (inactive)

Query string: Tell me GI50 reported for CCOC(=O)CCN1C(=O)c2c(NC(=O)C(=O)O)cccc2S1(=O)=O
Result string: > 100 µM (inactive)

Query string: Tell me GI50 reported for Nc1nncs1
Result string: 1950 µM (inactive)

Query string: Tell me GI50 reported for NCCCCC(NC(=O)C(N)Cc1ccc(O)cc1)C(=O)NC(Cc1ccc(O)cc1)C(=O)NC(CCCCN)C(=O)ON1C(=O)CCC1=O (stereo not given) (H-YKYK-OSu; configuration not given here)
Result string: > 100 µM (inactive)

Query string: Tell me GI50 reported for N=C(N)SCc1ccc(N=C=S)cc1
Result string: 13.7 µM (inactive)

====

Exercise: state measured GI50 for each of the compounds provided.
- Tested on: IGROV-1
- assay: NCI tumour cell line growth inhibition, 48 h
Calls of active or inactive are those of the source. No stated cut-off is given here; in the data, active = GI50 up to about 1.1 µM and inactive = higher.

Query string: Tell me GI50 reported for CN1CCC(=O)/C(=C/c2ccccc2)C1
Result string: 16 µM (inactive)

Query string: Tell me GI50 reported for Cc1nnc(N)nc1/C=C\c1ccc(Cl)cc1Cl
Result string: 16.3 µM (inactive)

Query string: Tell me GI50 reported for CC(C)NC(=O)OCc1c(COC(=O)NC(C)C)c(-c2ccc(Cl)c(Cl)c2)n2c1CCC2
Result string: 50 µM (inactive)

Query string: Tell me GI50 reported for C[C@]12CC[C@H]3[C@@H](CC=C4C[C@@H](O)CC[C@@]43C)[C@@H]1C/C(=C\c1ccncc1)[C@@H]2O
Result string: 21.8 µM (inactive)

Query string: Tell me GI50 reported for CCCCCCCCCCCCCCCCCCOCC(O)COP(=O)(O)OCC1OC(n2ccc(N)nc2=O)C(O)C1O (configuration not stated)
Result string: 9.62 µM (inactive)

Query string: Tell me GI50 reported for N=C(CSSCC(=N)NCC12CC3CC(CC(C3)C1)C2)NCC12CC3CC(CC(C3)C1)C2
Result string: 15.9 µM (inactive)

Query string: Tell me GI50 reported for Cc1ccc(S(=O)(=O)CC(=O)CC(=O)C(=O)Nc2cccc(C(F)(F)F)c2)cc1
Result string: > 100 µM (inactive)

Query string: Tell me GI50 reported for O=[N+]([O-])c1ccccc1[S+]([O-])c1ccccc1 (configuration not stated)
Result string: 68.2 µM (inactive)

Query string: Tell me GI50 reported for Oc1cc(-c2ccc3ccccc3c2)nc2ncc(Cl)cc12
Result string: 8.09 µM (inactive)

Query string: Tell me GI50 reported for CN(/N=C/c1cccc2cccnc12)c1c([N+](=O)[O-])cc([N+](=O)[O-])cc1[N+](=O)[O-]
Result string: > 100 µM (inactive)

Query string: Tell me GI50 reported for CCOc1ncn(-c2ccc(NC(=S)Nc3ncccn3)cc2)n1
Result string: 26.5 µM (inactive)

Query string: Tell me GI50 reported for COc1cccc(/C=C2\CCC(CN(C)C)C2=O)c1 (configuration not stated)
Result string: 8.47 µM (inactive)
